tested on: OVCAR-4; experiment: NCI tumour cell line growth inhibition, 48 h
Calls of active or inactive are those of the source. No stated cut-off is given here; in the data, active = GI50 up to about 1.1 µM and inactive = higher.
Labels: yes (1) = active, no (0) = inactive

molecule="CC(=O)/C=C/C1=C(C)CCCC1(C)CC(C)C (stereo not drawn)" assigned_class="no (0)"
molecule="COc1cc2c(cc1O)C1Cc3ccc(OC)c(O)c3C(C2)N1C (stereo not drawn)" assigned_class="no (0)"
molecule="CC(=O)OCC1OC(n2cc(F)c(=O)[nH]c2=O)C(OC(C)=O)C1OC(C)=O (stereo not drawn)" assigned_class="no (0)"
molecule=O=C(Cn1c2ccc(Br)cc2c2nc3ccccc3nc21)NNC(=O)NC1CCCCC1 assigned_class="no (0)"
molecule="CCOC(=O)C1=NNC(C(=O)c2ccccc2)C1c1ccccc1 (stereo not drawn)" assigned_class="no (0)"
molecule="CC(=O)OC(C)(C)CCC(=O)[C@](C)(O)[C@H]1[C@H](O)C[C@@]2(C)[C@@H]3CC=C4C(C)=C(OC5OC(CO)C(O)C(O)C5O)C(=O)C[C@@H]4[C@]3(C)C(=O)C[C@]12C (stereo partly drawn)" assigned_class="no (0)"
molecule=COc1cc2ccc(C(=O)O)cc2cc1OC assigned_class="no (0)"
molecule="CC[C@@H](CCCCC1CC[C@H]2CC(=O)C[C@@H]12)OC (stereo partly drawn)" assigned_class="no (0)"
molecule=Cc1c(C(=O)/C=C/c2ccc3c(c2)OCO3)[n+]([O-])c2ccccc2[n+]1[O-] assigned_class="no (0)"
molecule=[N-]=[N+]=NC(c1ccccc1)(c1ccccc1)c1ccccc1 assigned_class="no (0)"
molecule=Cc1cc2nc(C=C(C(F)(F)F)C(F)(F)F)sc2cc1C assigned_class="no (0)"
molecule=C/C(=N\NC(=S)N1CCN(C2CCCCCC2)CC1)c1ccccn1 assigned_class="yes (1)"
molecule=Nc1ccc2c(=O)cc(-c3cccs3)[nH]c2n1 assigned_class="no (0)"
molecule="CCOC(=O)C1=C(C)N(Cc2ccccc2)C(=O)C1CC#N (stereo not drawn)" assigned_class="no (0)"
molecule=Cc1cc2oc(-c3ccccc3)c(C)c(=O)c2c2c1OC(C)(C)S2 assigned_class="no (0)"
molecule="CC[P+](C)(Cc1ccccc1)c1ccccc1 (stereo not drawn)" assigned_class="no (0)"
molecule=COc1ccc(/C=N/N=C(\N)NO)c(OC)c1OC assigned_class="no (0)"
molecule=CCn1c(CCl)nc2c1C(=O)c1ccccc1C2=O assigned_class="no (0)"
molecule="Cc1ccc(C2OC(COCc3ccc(Cl)cc3)C(OCc3ccc(Cl)cc3)C2O)cc1 (stereo not drawn)" assigned_class="no (0)"
molecule=COc1cccc2c1-c1c(OC)cccc1SS2 assigned_class="no (0)"
molecule=NC(=O)c1cn(Cc2ccccc2)c(=O)n1Cc1ccccc1 assigned_class="no (0)"
molecule=NC(=O)c1ccc[n+](C2=C([N-]S(=O)(=O)c3ccccc3)C(=O)c3ccccc3C2=O)c1 assigned_class="no (0)"
molecule="CCCCCCCCCCCCCCCCCC(=O)OCC(COC1OC(CS(=O)(=O)O)C(O)C(O)C1O)OC(=O)CCCCCCCCCCCCCCCCC (stereo not drawn)" assigned_class="no (0)"

---

system: SK-OV-3; experiment: NCI tumour cell line growth inhibition, 48 h
The source made the active and inactive calls. Cut-off read from the data, not from the text of the source: active = GI50 up to about 1.1 µM and inactive = higher. Where a SMILES comes first, the peptide text is derived from it. [ ]: non-standard residue; d: D form. The star is where a group is joined. Chg = N[CH](C(=O)O)C1CCCCC1; Cbz = O=C(OCc1ccccc1)*; OBn = c1ccc(CO*)cc1
Labels: Yes (active), No (inactive)

compound=Cc1c(C(=O)/C=C/c2ccc3c(c2)OCO3)[n+]([O-])c2ccccc2[n+]1[O-] experimental_system=SK-OV-3 assigned_class=No
compound="CCC(C)CC(C)CC(C)/C=C(\\C)C1=C(C)CC(C)(O)O1 (configuration not stated)" experimental_system=SK-OV-3 assigned_class=No
compound="COC(=O)C(NC(=O)C(CC(=O)OCc1ccccc1)NC(=O)OCc1ccccc1)C1CCCCC1 (configuration not stated) (Cbz-Asp(OBn)-[Chg]-OMe; configuration not given here)" experimental_system=SK-OV-3 assigned_class=No
compound="COc1ccc(C2C=C(c3ccc(C)cc3)N(c3ccc(OC)cc3[N+](=O)[O-])C3C(=O)OC(=O)C23)c(OC)c1 (configuration not stated)" experimental_system=SK-OV-3 assigned_class=No
compound=COc1ccc2nc3c([N+](=O)[O-])ccc4c3c(c2c1)N=CN4CCCN(C)C experimental_system=SK-OV-3 assigned_class=No
compound="O=C1c2ccccc2C2CNC1(O)c1ccccc12 (configuration not stated)" experimental_system=SK-OV-3 assigned_class=No
compound=CC(=O)CC(=O)NC=O experimental_system=SK-OV-3 assigned_class=No
compound=COc1ccc2ccccc2c1/C=C/C(=O)c1ccccc1 experimental_system=SK-OV-3 assigned_class=No
compound="C=C1C(=O)O[C@@H]2OC3(C)CCC4C(C)CCC1C42OO3 (some centres not stated)" experimental_system=SK-OV-3 assigned_class=No
compound="COc1ccc(CC(C#N)c2cc(OC)c(OC)c(OC)c2)cc1 (configuration not stated)" experimental_system=SK-OV-3 assigned_class=Yes
compound=Cc1nc2c(s/c(=N\N)n2-c2ccccc2)c(=O)[nH]1 experimental_system=SK-OV-3 assigned_class=No
compound=[N-]=[N+]=C1C(=O)C2CC3CC(C2)CC1C3 experimental_system=SK-OV-3 assigned_class=No
compound=CCOc1ccc2nc3cc(/N=N/c4ccc(N)nc4N)ccc3c(N)c2c1 experimental_system=SK-OV-3 assigned_class=No
compound="CC(=O)N1CC2Nc3ccccc3C2CC1CO (configuration not stated)" experimental_system=SK-OV-3 assigned_class=No
compound=CCOc1cc2c(=O)oc3c(OC)ccc4ccc(c1OC)c2c43 experimental_system=SK-OV-3 assigned_class=No
compound=Cc1cc2oc(-c3ccccc3)c(C)c(=O)c2c2c1OC(C)(C)S2 experimental_system=SK-OV-3 assigned_class=No
compound=CCOC(=O)c1nc2cc(C(F)(F)F)ccc2nc1Nc1ccc(F)cc1 experimental_system=SK-OV-3 assigned_class=No
compound=COC(=O)NC12CC3CC(CC(F)(C3)C1)C2 experimental_system=SK-OV-3 assigned_class=No
compound="CC[P+](C)(Cc1ccccc1)c1ccccc1 (configuration not stated)" experimental_system=SK-OV-3 assigned_class=No
compound=O=C(Nc1ccc(Cl)cc1)c1cc(S(=O)(=O)Nc2n[nH]c(=O)[nH]2)c(SSc2cc(Cl)c(C(=O)Nc3ccc(Cl)cc3)cc2S(=O)(=O)Nc2n[nH]c(=O)[nH]2)cc1Cl experimental_system=SK-OV-3 assigned_class=No
compound=Cn1c2ccccc2n2c(=O)c3c(c(C#N)c12)CCCC3 experimental_system=SK-OV-3 assigned_class=No
compound=CCn1c(CCl)nc2c1C(=O)c1ccccc1C2=O experimental_system=SK-OV-3 assigned_class=Yes

---

system: DMS-114; test: NCI tumour cell line growth inhibition, 48 h
Calls of active or inactive are those of the source. No stated cut-off is given here; in the data, active = GI50 up to about 1.1 µM and inactive = higher.
Labels: active, inactive

molecule="CC[P+](C)(Cc1ccccc1)c1ccccc1 (stereo unspecified)" assigned_class=inactive
molecule=COc1cc(/C=C(\C)c2ccc3c(c2)OCO3)cc(OC)c1OC assigned_class=inactive
molecule="COc1ccc(CC(C#N)c2cc(OC)c(OC)c(OC)c2)cc1 (stereo unspecified)" assigned_class=active
molecule=CN(C)CCCCN1CCc2c(n(C)c3ccccc23)C1=O assigned_class=inactive
molecule=Nc1ccc(Nc2nc(F)nc(-c3c4ccccc4c4n3CCS4)n2)cc1 assigned_class=inactive
molecule="CC(=O)N1CC2Nc3ccccc3C2CC1CO (stereo unspecified)" assigned_class=inactive

---

test system: SK-MEL-28; test: NCI tumour cell line growth inhibition, 48 h
Calls of active or inactive are those of the source. No stated cut-off is given here; in the data, active = GI50 up to about 1.1 µM and inactive = higher.
Measured GI50, listed per entry.
Recorded Metric: GI50

compound=C/C(=N\NC(=O)c1ccncc1)c1ccccc1Cl experimental_system=SK-MEL-28 obs_value="> 100 µM (inactive)"
compound="COc1ccc(C2C=C(c3ccc(C)cc3)N(c3ccc(OC)cc3[N+](=O)[O-])C3C(=O)OC(=O)C23)c(OC)c1 (stereo not given)" experimental_system=SK-MEL-28 obs_value="> 100 µM (inactive)"
compound="CC(C)C1=CCC2C(=C1)CCC1C(C)(C(=O)O)CCCC21C (stereo not given)" experimental_system=SK-MEL-28 obs_value="> 100 µM (inactive)"
compound="O=C1CCC(NC(=O)c2ccccc2)C(=O)N1 (stereo not given)" experimental_system=SK-MEL-28 obs_value="> 100 µM (inactive)"
compound="COc1cc2c(cc1OCCCC(=O)Nc1cc(C(=O)Nc3cc(C(=O)Nc4cc(C(=O)NCCCN(C)C)n(C)n4)n(C)c3)n(C)c1)N=CC1CCCN1C2=O (stereo not given)" experimental_system=SK-MEL-28 obs_value="17.1 µM (inactive)"

---

test system: PC-3; assay: NCI tumour cell line growth inhibition, 48 h
The source made the active and inactive calls. Cut-off read from the data, not from the text of the source: active = GI50 up to about 1.1 µM and inactive = higher.
Labels: 1 (yes) = active, 0 (no) = inactive

molecule=CCOc1ccccc1-c1nc2c(s1)C(=O)c1ccccc1C2=O experimental_system=PC-3 assigned_class="0 (no)"
molecule="O=P(O)(NCCCl)NCCCl [PALIFOSFAMIDE]" experimental_system=PC-3 assigned_class="0 (no)"
molecule="CC1(C)CCC(C)(C)C1C(=O)NC(O)C(=O)O (stereo unspecified)" experimental_system=PC-3 assigned_class="0 (no)"
molecule="O=C1CCC(NC(=O)c2ccccc2)C(=O)N1 (stereo unspecified)" experimental_system=PC-3 assigned_class="0 (no)"
molecule=CCSC1=N/C(=C/c2ccccc2O)C(=O)N1 experimental_system=PC-3 assigned_class="0 (no)"
molecule=NCCN1CCCCCc2ccccc21 experimental_system=PC-3 assigned_class="0 (no)"
molecule=O=C1CCc2ccc3c(c21)CC1(Cc2ccccc2C1)C3 experimental_system=PC-3 assigned_class="0 (no)"
molecule="Nc1ccccc1NC(=O)c1ccc(CNC(=O)OCc2cccnc2)cc1 [ENTINOSTAT]" experimental_system=PC-3 assigned_class="0 (no)"
molecule=CN(/N=C/c1ccccc1C(=O)O)C1=NCCCCN1 experimental_system=PC-3 assigned_class="0 (no)"
molecule="C=C1C(=O)O[C@H]2C/C(C=O)=C\\[C@H]3O[C@H]3/C(COC(=O)C(C)C)=C/CC12 (stereo partly specified)" experimental_system=PC-3 assigned_class="0 (no)"
molecule=Cc1cc(N(CCC#N)CCC#N)ccc1C(/N=N/c1ccc(Cl)cc1)=N\NC(=O)c1ccccc1 experimental_system=PC-3 assigned_class="0 (no)"
molecule=Cc1ccccc1C(=O)N/N=C/c1ccc(Sc2nccn2C)c([N+](=O)[O-])c1 experimental_system=PC-3 assigned_class="0 (no)"
molecule="C=C1C(=O)O[C@H]2C1C[C@H](O)[C@@]1(C)OC1CC[C@@]1(C)O[C@H]21 (stereo partly specified)" experimental_system=PC-3 assigned_class="0 (no)"
molecule="CN1C(C)(C)CC(=O)C(Br)C1(C)C (stereo unspecified)" experimental_system=PC-3 assigned_class="0 (no)"
molecule="COc1cc2c(c(OC)c1)[C@H](C)N(Cc1ccccc1)C(C)C2 (stereo partly specified)" experimental_system=PC-3 assigned_class="0 (no)"
molecule=CCOC(=O)c1nc2cc(C(F)(F)F)ccc2nc1Nc1ccc(F)cc1 experimental_system=PC-3 assigned_class="0 (no)"
molecule=Cc1nc2ccccc2n1Cc1nnc2n1N=C(c1ccccc1)CS2 experimental_system=PC-3 assigned_class="0 (no)"
molecule="C=C[C@]1(C)CC(O)C2C(=C)C(=O)OC2[C@H]1C(=C)C=O (stereo partly specified)" experimental_system=PC-3 assigned_class="0 (no)"
molecule=C/C(=N\NC(=S)N(C)CCN(C)C(=S)N/N=C(\C)c1ccccn1)c1ccccn1 experimental_system=PC-3 assigned_class="1 (yes)"
molecule="CC(=O)OC(C)(C)/C=C/C(=O)[C@](C)(O)[C@H]1[C@H](O)C[C@@]2(C)[C@@H]3CC=C4[C@@H](C=C(O)C(=O)C4(C)C)[C@]3(C)C(=O)C[C@]12C [CUCURBITACIN E]" experimental_system=PC-3 assigned_class="1 (yes)"
molecule="OCc1cc2c([nH]c3ccccc32)c(C(O)CO)n1 (stereo unspecified)" experimental_system=PC-3 assigned_class="0 (no)"

Reference for the values: ChEMBL document CHEMBL1201862
